The measured values listed here are drawn from ChEMBL document CHEMBL3091337.

system: Human immunodeficiency virus 1; test: Antiviral activity against drug-resistant HIV1 RES056 harboring reverse transcriptase K103N/Y181C double mutant infected in human MT-4 cells assessed as protection against virus-induced cytopathicity after 5 days by MTT assay; assay type: functional, organism-based; conditions: Human immunodeficiency virus 1, RES056, MT4, 120 h
pEC50: −log10 of the molar value. Where a name gives a salt, the structure may show the parent alone.
assay-endpoint: pEC50

Prompt: What pEC50 appears in the records for this compound with Human immunodeficiency virus 1? "Cc1cc(C)c(Oc2cc(NC3CCN(Cc4ccc(S(N)(=O)=O)cc4)CC3)nc(Nc3ccc(C#N)cc3)n2)c(C)c1"
Response: < 4.55

Prompt: For CC(C)Nc1cccnc1N1CCN(C(=O)c2cc3cc(NS(C)(=O)=O)ccc3[nH]2)CC1 [DELAVIRDINE MESYLATE] then?
Response: < 4.44

Prompt: For "Cc1cc(C)c(Oc2cc(NC3CCN(Cc4ccncc4)CC3)nc(Nc3ccc(C#N)cc3)n2)c(C)c1" then?
Response: < 4.96

Prompt: For "Cc1cc(C)c(Oc2cc(NC3CCNCC3)nc(Nc3ccc(C#N)cc3)n2)c(C)c1" then?
Response: ≤ 5.74

Prompt: For "Cc1cc(C#N)cc(C)c1Oc1cc(NC2CCN(Cc3ccc(S(C)(=O)=O)cc3)CC2)nc(Nc2ccc(C#N)cc2)n1" then?
Response: < 3.69

Prompt: For "Cc1cc(C#N)cc(C)c1Oc1cc(NC2CCN(Cc3ccc(S(N)(=O)=O)cc3)CC2)nc(Nc2ccc(C#N)cc2)n1" then?
Response: 5.41

Prompt: For "Cc1cc(C)c(Nc2cc(NC3CCN(Cc4ccc(S(N)(=O)=O)cc4)CC3)nc(Nc3ccc(C#N)cc3)n2)c(C)c1" then?
Response: < 5.19

Prompt: For "Cc1cc(C#N)cc(C)c1Oc1cc(NC2CCN(Cc3ccncc3)CC2)nc(Nc2ccc(C#N)cc2)n1" then?
Response: 5.34

Prompt: For Cc1ccnc2c1NC(=O)c1cccnc1N2C1CC1 [NEVIRAPINE] then?
Response: 5.60

Prompt: For "Cc1cc(C#N)cc(C)c1Oc1cc(NC2CCNCC2)nc(Nc2ccc(C#N)cc2)n1" then?
Response: 6.02

Prompt: For "Cc1cc(C)c(Oc2cc(NC3CCN(Cc4ccc(S(C)(=O)=O)cc4)CC3)nc(Nc3ccc(C#N)cc3)n2)c(C)c1" then?
Response: ≤ 4.80

====

Please respond with reported selectivity ratio for every item in the list.
test: Selectivity index, ratio of CC50 for human MT4 cells to EC50 for drug-resistant HIV1 RES056 harboring reverse transcriptase K103N/Y181C double mutant; format: toxicity, cell-based; conditions: read-out: Ratio CC50/EC50
Counter-ions that a name gives are not always drawn.
Respond using a number only.

Prompt: Quick check: selectivity ratio of "Cc1cc(C#N)cc(C)c1Oc1cc(NC2CCN(Cc3ccc(S(N)(=O)=O)cc3)CC2)nc(Nc2ccc(C#N)cc2)n1" ?
Response: 3

Prompt: For "Cc1cc(C#N)cc(C)c1Oc1cc(NC2CCN(Cc3ccc(S(C)(=O)=O)cc3)CC2)nc(Nc2ccc(C#N)cc2)n1" then?
Response: 1

Prompt: For "Cc1cc(C#N)cc(C)c1Oc1cc(NC2CCNCC2)nc(Nc2ccc(C#N)cc2)n1" then?
Response: 4

Prompt: For "Cc1cc(C#N)cc(C)c1Oc1cc(NC2CCN(Cc3ccncc3)CC2)nc(Nc2ccc(C#N)cc2)n1" then?
Response: 22

Prompt: For CC(C)Nc1cccnc1N1CCN(C(=O)c2cc3cc(NS(C)(=O)=O)ccc3[nH]2)CC1 [DELAVIRDINE MESYLATE] then?
Response: 1

====

assay: Cytotoxicity against human MT4 cells after 5 days by MTT assay; format: cell-based
Counter-ions that a name gives are not always drawn.
In plain terms, low CC50 at 120 h, meaning strictly below 10 µM, gives Y, and everything else gives N.

Prompt: Check if CC50 at 120 h falls below 10 µM for "Cc1cc(C#N)cc(C)c1Oc1cc(NC2CCNCC2)nc(Nc2ccc(C#N)cc2)n1" .
Response: Y

Prompt: For "Cc1cc(C)c(Oc2cc(NC3CCN(Cc4ccc(S(N)(=O)=O)cc4)CC3)nc(Nc3ccc(C#N)cc3)n2)c(C)c1" then?
Response: N

Prompt: For CC(C)Nc1cccnc1N1CCN(C(=O)c2cc3cc(NS(C)(=O)=O)ccc3[nH]2)CC1 [DELAVIRDINE MESYLATE] then?
Response: N

Prompt: For "Cc1cc(C)c(Nc2cc(NC3CCN(Cc4ccc(S(N)(=O)=O)cc4)CC3)nc(Nc3ccc(C#N)cc3)n2)c(C)c1" then?
Response: Y

Prompt: For "Cc1ccnc2c1NC(=O)c1cccnc1N2C1CC1" then?
Response: N

Prompt: For "Cc1cc(C)c(Oc2cc(NC3CCNCC3)nc(Nc3ccc(C#N)cc3)n2)c(C)c1" then?
Response: Y

Prompt: For "Cc1cc(C)c(Oc2cc(NC3CCN(Cc4ccncc4)CC3)nc(Nc3ccc(C#N)cc3)n2)c(C)c1" then?
Response: N

Prompt: For "Cc1cc(C#N)cc(C)c1Oc1cc(NC2CCN(Cc3ccncc3)CC2)nc(Nc2ccc(C#N)cc2)n1" then?
Response: N

Prompt: For "Cc1cc(C)c(Oc2cc(NC3CCN(Cc4ccc(S(C)(=O)=O)cc4)CC3)nc(Nc3ccc(C#N)cc3)n2)c(C)c1" then?
Response: N

Prompt: For "Cc1cc(C#N)cc(C)c1Oc1cc(NC2CCN(Cc3ccc(S(N)(=O)=O)cc3)CC2)nc(Nc2ccc(C#N)cc2)n1" then?
Response: N

Prompt: For "Cc1cc(C#N)cc(C)c1Oc1cc(NC2CCN(Cc3ccc(S(C)(=O)=O)cc3)CC2)nc(Nc2ccc(C#N)cc2)n1" then?
Response: N

====

Please respond with reported selectivity ratio for every item in the list.
experiment: Selectivity index, ratio of CC50 for human MT4 cells to EC50 for HIV1 3B; type: toxicity, cell-based; conditions: read-out: Ratio CC50/EC50
Respond using a number only.

Prompt: Quick check: selectivity ratio of "Cc1cc(C)c(Oc2cc(NC3CCNCC3)nc(Nc3ccc(C#N)cc3)n2)c(C)c1" ?
Response: 69

Prompt: For "Cc1cc(C)c(Oc2cc(NC3CCN(Cc4ccc(S(N)(=O)=O)cc4)CC3)nc(Nc3ccc(C#N)cc3)n2)c(C)c1" then?
Response: 61

Prompt: For "Cc1cc(C#N)cc(C)c1Oc1cc(NC2CCN(Cc3ccc(S(N)(=O)=O)cc3)CC2)nc(Nc2ccc(C#N)cc2)n1" then?
Response: 93

Prompt: For "Cc1cc(C)c(Oc2cc(NC3CCN(Cc4ccncc4)CC3)nc(Nc3ccc(C#N)cc3)n2)c(C)c1" then?
Response: 44

Prompt: For "Cc1cc(C#N)cc(C)c1Oc1cc(NC2CCN(Cc3ccncc3)CC2)nc(Nc2ccc(C#N)cc2)n1" then?
Response: 2140

Prompt: For "Cc1cc(C)c(Oc2cc(NC3CCN(Cc4ccc(S(C)(=O)=O)cc4)CC3)nc(Nc3ccc(C#N)cc3)n2)c(C)c1" then?
Response: 934

Prompt: For "Cc1cc(C#N)cc(C)c1Oc1cc(NC2CCNCC2)nc(Nc2ccc(C#N)cc2)n1" then?
Response: 112

Prompt: For "Cc1cc(C)c(Nc2cc(NC3CCN(Cc4ccc(S(N)(=O)=O)cc4)CC3)nc(Nc3ccc(C#N)cc3)n2)c(C)c1" then?
Response: 83

====

target: UniProtKB Q72547; test: Inhibition of recombinant HIV1 reverse transcriptase using poly rA:dT as template/primer after 1 hr by ELISA
assay-endpoint: IC50 (µM)
Reply numerically in µM, unit not repeated.

Prompt: Quick check: IC50 of "Cc1cc(C#N)cc(C)c1Oc1cc(NC2CCN(Cc3ccncc3)CC2)nc(Nc2ccc(C#N)cc2)n1" ?
Response: 33

====

Please respond with reported selectivity ratio for every item in the list.
assay: Selectivity index, ratio of CC50 for human MT4 cells to EC50 for drug-resistant HIV1 RES056 harboring reverse transcriptase K103N/Y181C double mutant; type: toxicity, cell-based; settings: read-out: Ratio CC50/EC50

Prompt: Quick check: selectivity ratio of "Cc1cc(C)c(Oc2cc(NC3CCN(Cc4ccncc4)CC3)nc(Nc3ccc(C#N)cc3)n2)c(C)c1" ?
Response: < 1

Prompt: For "Cc1cc(C)c(Oc2cc(NC3CCNCC3)nc(Nc3ccc(C#N)cc3)n2)c(C)c1" then?
Response: ≤ 5

Prompt: For "Cc1cc(C)c(Oc2cc(NC3CCN(Cc4ccc(S(N)(=O)=O)cc4)CC3)nc(Nc3ccc(C#N)cc3)n2)c(C)c1" then?
Response: < 1

Prompt: For "Cc1cc(C)c(Nc2cc(NC3CCN(Cc4ccc(S(N)(=O)=O)cc4)CC3)nc(Nc3ccc(C#N)cc3)n2)c(C)c1" then?
Response: < 1

Prompt: For "Cc1cc(C)c(Oc2cc(NC3CCN(Cc4ccc(S(C)(=O)=O)cc4)CC3)nc(Nc3ccc(C#N)cc3)n2)c(C)c1" then?
Response: ≤ 8
